Test system: HEp-2
Experiment: Antiproliferative activity against human HEp2 cell line at 1000 uM relative to control
Type: functional
*1 amine or outer side, *2 acyl side, *3 side chain or, on linkers, in order; H or OH if unused. Where a SMILES comes first, the peptide text is derived from it. [ ]: non-standard residue; d: D form. X1 = O=C(C(N[*:1])C1C2CC3CC(C2)CC1C3)[*:2]; X2 = O=C(C1(N[*:1])C2CC3CC(C2)CC1C3)[*:2]
So basically, the class depends on measured inhibition at 1000 µM, and the ranges are range A (below 20%), range B (20% to below 40%), range C (40% or more)

Worked examples, 3 compounds total:
compound	classification
N[C@@H](Cc1ccc(O)cc1)C(=O)NC1(C(=O)O)C2CC3CC(C2)CC1C3 (some centres undefined)	range B
CSCC[C@H](NC(=O)[C@H](Cc1ccccc1)NC(=O)CNC(=O)C1(NC(=O)[C@@H](N)Cc2ccc(O)cc2)C2CC3CC(C2)CC1C3)C(=O)O (some centres undefined) (H-Y[X2]GFM-OH)	range B
CSCC[C@H](NC(=O)[C@H](Cc1ccccc1)NC(=O)CNC(=O)C(NC(=O)[C@@H](N)Cc1ccc(O)cc1)C1C2CC3CC(C2)CC1C3)C(=O)O (some centres undefined) (H-Y[X1]GFM-OH)	range C

Incoming: Where would N[C@@H](Cc1ccc(O)cc1)C(=O)N[C@@H](C(=O)O)C1C2CC3CC(C2)CC1C3 (some centres undefined) land among the classes by reported inhibition at 1000 µM?
Outgoing: range A

Incoming: State the class of the compound shown: "CSCC[C@H](NC(=O)[C@H](Cc1ccccc1)NC(=O)CNC(=O)CNC(=O)[C@@H](N)Cc1ccc(O)cc1)C(=O)O"
Outgoing: range A

Incoming: Record CSCC[C@H](NC(=O)[C@H](Cc1ccccc1)NC(=O)CNC(=O)CNC(=O)[C@@H](N)Cc1ccc(O)cc1)C(=O)NC1(C(=O)O)C2CC3CC(C2)CC1C3 (some centres undefined) (H-YGGFM[X2]-OH) — which class?
Outgoing: range C

Incoming: GET /class?item= N[C@@H](Cc1ccc(O)cc1)C(=O)N[C@H](C(=O)NCC(=O)O)C1C2CC3CC(C2)CC1C3 (some centres undefined)
Outgoing: range B

Incoming: Place this compound in its band: N[C@@H](Cc1ccc(O)cc1)C(=O)N[C@@H](C(=O)NCC(=O)O)C1C2CC3CC(C2)CC1C3 (some centres undefined)
Outgoing: range B

Incoming: For N[C@@H](Cc1ccc(O)cc1)C(=O)N[C@H](C(=O)O)C1C2CC3CC(C2)CC1C3 (some centres undefined) , which inhibition at 1000 µM bin applies?
Outgoing: range B

* * *

System: HEp-2
Assay: Antiproliferative activity against human HEp2 cell line at 100 uM relative to control
Format: functional
*1 amine or outer side, *2 acyl side, *3 side chain or, on linkers, in order; H or OH if unused. Where a SMILES comes first, the peptide text is derived from it. [ ]: non-standard residue; d: D form. X1 = O=C(C(N[*:1])C1C2CC3CC(C2)CC1C3)[*:2]
readoutLabel: inhibition at 100 µM (%)
Report as a plain number; the unit % is understood.

Incoming: Respond only with inhibition at 100 µM recorded for CSCC[C@H](NC(=O)[C@H](Cc1ccccc1)NC(=O)CNC(=O)C(NC(=O)[C@@H](N)Cc1ccc(O)cc1)C1C2CC3CC(C2)CC1C3)C(=O)O (stereo partly drawn) (H-Y[X1]GFM-OH)
Outgoing: 34.7

Incoming: Annotate the compound N[C@@H](Cc1ccc(O)cc1)C(=O)N[C@@H](C(=O)O)C1C2CC3CC(C2)CC1C3 (stereo partly drawn) with its measured inhibition at 100 µM.
Outgoing: 1.9

Incoming: Give recorded inhibition at 100 µM. N[C@@H](Cc1ccc(O)cc1)C(=O)N[C@@H](C(=O)NCC(=O)O)C1C2CC3CC(C2)CC1C3 (stereo partly drawn)
Outgoing: 12.6

Incoming: Supply inhibition at 100 µM value. Item: N[C@@H](Cc1ccc(O)cc1)C(=O)NC1(C(=O)O)C2CC3CC(C2)CC1C3 (stereo partly drawn)
Outgoing: 24.9

Incoming: Provide one value: measured inhibition at 100 µM of "CSCC[C@H](NC(=O)[C@H](Cc1ccccc1)NC(=O)CNC(=O)CNC(=O)[C@@H](N)Cc1ccc(O)cc1)C(=O)O"
Outgoing: 2.4

# credit: ChEMBL document CHEMBL1147809
